Value source: ChEMBL document CHEMBL3997846

Listed compounds paired with reported pIC50
System: Leishmania donovani
Experiment: Antileishmanial activity against Leishmania donovani MHOM/SD/62/ISCL2D axenic amastigotes after 72 hrs by alamar blue assay
Format: functional
pIC50: −log10 of the molar value.
Assay readout: pIC50

INSERT INTO assay_data (compound, assay_readout, result) VALUES
  ('CNc1ncnc2c1ncn2[C@@H]1O[C@H](C)[C@@H](O)[C@H]1O', 'pIC50', '< 3.42'),
  ('CNc1nc(NC)c2ncn([C@@H]3O[C@H](C)[C@@H](O)[C@H]3O)c2n1', 'pIC50', '< 3.47'),
  ('C[S+]([O-])C[C@H]1O[C@@H](n2cnc3c(N)nc(Cl)nc32)[C@H](O)[C@@H]1O (some centres undefined)', 'pIC50', '< 3.59'),
  ('Nc1nc2c(ccn2[C@@H]2O[C@H](CO)[C@@H](O)[C@H]2O)c(=S)[nH]1', 'pIC50', '< 3.47'),
  ('CC(=O)O[C@@H]1[C@H](OC(C)=O)[C@@H](CN2C(=O)c3ccccc3C2=O)O[C@H]1n1cnc2c(N)nc(F)nc21', 'pIC50', '< 3.70'),
  ('CC(=O)NC[C@H]1O[C@@H](n2cnc3c(N)nc(F)nc32)[C@H](OC(C)=O)[C@@H]1OC(C)=O', 'pIC50', '< 3.62'),
  ('CNc1nc(N)nc2c1ncn2[C@@H]1O[C@H](CSC)[C@@H](O)[C@H]1O', 'pIC50', '< 3.50'),
  ('CC(=O)O[C@@H]1[C@H](OC(C)=O)[C@@H](CS(C)(=O)=O)O[C@H]1n1cnc2c(N)nc(Cl)nc21', 'pIC50', '< 3.70'),
  ('CNc1ncnc2c1ncn2[C@@H]1O[C@H](CSC)[C@@H](O)[C@H]1O', 'pIC50', '< 3.49');

---

Test: Selectivity index, ratio of IC50 for rat L6 cells to IC50 for chloroquine resistant Plasmodium falciparum K1 erythrocytic stage
Type: toxicity
Settings: read-out: Ratio IC50
Below: a set of entries, each annotated with reported selectivity ratio.
Assay readout: selectivity ratio

INSERT INTO measurements (compound, assay_readout, rel, result_number) VALUES
  ('CNc1nc(NC)c2ncn([C@@H]3O[C@H](C)[C@@H](O)[C@H]3O)c2n1', 'selectivity ratio', '<', 1),
  ('CC(=O)O[C@@H]1[C@H](OC(C)=O)[C@@H](CN2C(=O)c3ccccc3C2=O)O[C@H]1n1cnc2c(N)nc(F)nc21', 'selectivity ratio', '=', 3),
  ('CC(=O)O[C@@H]1[C@H](OC(C)=O)[C@@H](CN2C(=O)c3ccccc3C2=O)O[C@H]1n1cnc2c(N)nc(Cl)nc21', 'selectivity ratio', '=', 6),
  ('CC(=O)O[C@@H]1[C@H](OC(C)=O)[C@@H](CI)O[C@H]1n1cnc2c(N)nc(Cl)nc21', 'selectivity ratio', '=', 22),
  ('CSC[C@H]1O[C@@H](n2cnc3c(N)nc(Cl)nc32)[C@H](OC(C)=O)[C@@H]1OC(C)=O', 'selectivity ratio', '=', 18),
  ('COc1nc(I)nc2c1ncn2[C@@H]1O[C@H](C)[C@@H](O)[C@H]1O', 'selectivity ratio', '=', 2),
  ('Nc1nc2c(ccn2[C@@H]2O[C@H](CO)[C@@H](O)[C@H]2O)c(=S)[nH]1', 'selectivity ratio', '<', 1),
  ('Nc1nc(Cl)c2ccn([C@@H]3O[C@H](CO)[C@@H](O)[C@H]3O)c2n1', 'selectivity ratio', '=', 2),
  ('CSC[C@H]1O[C@@H](n2cnc3c(N)nc(F)nc32)[C@H](OC(C)=O)[C@@H]1OC(C)=O', 'selectivity ratio', '=', 5),
  ('CC(=O)O[C@@H]1[C@H](OC(C)=O)[C@@H](CS(C)(=O)=O)O[C@H]1n1cnc2c(N)nc(Cl)nc21', 'selectivity ratio', '=', 11),
  ('[N-]=[N+]=NC[C@H]1O[C@@H](n2cnc3c(N)nc(F)nc32)[C@H](O)[C@@H]1O', 'selectivity ratio', '=', 3),
  ('CC(=O)NC[C@H]1O[C@@H](n2cnc3c(N)nc(Cl)nc32)[C@H](O)[C@@H]1O', 'selectivity ratio', '=', 2),
  ('CC(=O)O[C@@H]1[C@H](OC(C)=O)[C@@H](CN=[N+]=[N-])O[C@H]1n1cnc2c(N)nc(F)nc21', 'selectivity ratio', '=', 12),
  ('[N-]=[N+]=NC[C@H]1O[C@@H](n2cnc3c(N)nc(Cl)nc32)[C@H](O)[C@@H]1O', 'selectivity ratio', '=', 16),
  ('CC(=O)O[C@@H]1[C@H](OC(C)=O)[C@@H](CI)O[C@H]1n1cnc2c(N)nc(F)nc21', 'selectivity ratio', '=', 6),
  ('CC(=O)NC[C@H]1O[C@@H](n2cnc3c(N)nc(F)nc32)[C@H](OC(C)=O)[C@@H]1OC(C)=O', 'selectivity ratio', '=', 4),
  ('CNc1nc(N)nc2c1ncn2[C@@H]1O[C@H](C)[C@@H](O)[C@H]1O', 'selectivity ratio', '=', 11),
  ('CC(=O)O[C@@H]1[C@H](OC(C)=O)[C@@H](CN=[N+]=[N-])O[C@H]1n1cnc2c(N)nc(Cl)nc21', 'selectivity ratio', '=', 11),
  ('CNc1nc(N)nc2c1ncn2[C@@H]1O[C@H](CSC)[C@@H](O)[C@H]1O', 'selectivity ratio', '=', 6),
  ('CC(=O)O[C@@H]1[C@H](OC(C)=O)[C@@H](C[S+](C)[O-])O[C@H]1n1cnc2c(N)nc(Cl)nc21 (stereo partly specified)', 'selectivity ratio', '=', 2),
  ('CS(=O)(=O)C[C@H]1O[C@@H](n2cnc3c(N)nc(F)nc32)[C@H](O)[C@@H]1O', 'selectivity ratio', '=', 0.6);

---

Form field: selectivity ratio (one value per entry).
Assay: Selectivity index, ratio of IC50 for rat L6 cells to IC50 for Leishmania donovani MHOM/SD/62/ISCL2D axenic amastigotes
Format: toxicity
Settings: read-out: Ratio IC50
Assay readout: selectivity ratio

INSERT INTO results (compound, result) VALUES
  ('CNc1ncnc2c1ncn2[C@@H]1O[C@H](C)[C@@H](O)[C@H]1O', '< 0.7'),
  ('Nc1nc([Se][Se]c2nc(N)nc3c2ccn3[C@@H]2O[C@H](CO)[C@@H](O)[C@H]2O)c2ccn([C@@H]3O[C@H](CO)[C@@H](O)[C@H]3O)c2n1', '< 0.2'),
  ('Nc1nc2c(ccn2[C@@H]2O[C@H](CO)[C@@H](O)[C@H]2O)c(=S)[nH]1', '< 0.6'),
  ('CC(=O)NC[C@H]1O[C@@H](n2cnc3c(N)nc(F)nc32)[C@H](OC(C)=O)[C@@H]1OC(C)=O', '< 0.6'),
  ('C[S+]([O-])C[C@H]1O[C@@H](n2cnc3c(N)nc(Cl)nc32)[C@H](O)[C@@H]1O (stereo not given in full)', '< 1');

---

Experiment: Selectivity index, ratio of IC50 for rat L6 cells to IC50 for Leishmania donovani MHOM/SD/62/ISCL2D axenic amastigotes
Format: toxicity
Settings: read-out: Ratio IC50
Assay readout: selectivity ratio

INSERT INTO assay_data (record_smiles, result) VALUES
  ('CC(=O)O[C@@H]1[C@H](OC(C)=O)[C@@H](CS(C)(=O)=O)O[C@H]1n1cnc2c(N)nc(Cl)nc21', '< 0.6'),
  ('CNc1nc(NC)c2ncn([C@@H]3O[C@H](C)[C@@H](O)[C@H]3O)c2n1', '< 0.6'),
  ('CS(=O)(=O)C[C@H]1O[C@@H](n2cnc3c(N)nc(Cl)nc32)[C@H](O)[C@@H]1O', '< 0.6'),
  ('CC(=O)NC[C@H]1O[C@@H](n2cnc3c(N)nc(Cl)nc32)[C@H](OC(C)=O)[C@@H]1OC(C)=O', '< 0.8');

---

Catalogue of molecules with associated selectivity ratio
Assay: Selectivity index, ratio of IC50 for rat L6 cells to IC50 for Trypanosoma cruzi Tulahuen strain C2C4 amastigote forms harboring LacZ infected in rat L6 cells
Assay type: toxicity, cell-based
Conditions: read-out: Ratio IC50
Assay readout: selectivity ratio

INSERT INTO results (record_smiles, result) VALUES
  ('CNc1ncnc2c1ncn2[C@@H]1O[C@H](C)[C@@H](O)[C@H]1O', 1),
  ('CSC[C@H]1O[C@@H](n2cnc3c(N)nc(NN)nc32)[C@H](O)[C@@H]1O', 1),
  ('CC(=O)NC[C@H]1O[C@@H](n2cnc3c(N)nc(F)nc32)[C@H](O)[C@@H]1O', 1),
  ('CNc1nc(I)nc2c1ncn2[C@@H]1O[C@H](CSC)[C@@H](O)[C@H]1O', 1),
  ('CC(=O)O[C@@H]1[C@H](OC(C)=O)[C@@H](CN2C(=O)c3ccccc3C2=O)O[C@H]1n1cnc2c(N)nc(F)nc21', 1),
  ('CC(=O)O[C@@H]1[C@H](OC(C)=O)[C@@H](CS(C)(=O)=O)O[C@H]1n1cnc2c(N)nc(Cl)nc21', '< 0.6'),
  ('CSC[C@H]1O[C@@H](n2cnc3c(N)nc(Cl)nc32)[C@H](O)[C@@H]1O', '< 1'),
  ('CC(=O)O[C@@H]1[C@H](OC(C)=O)[C@@H](CI)O[C@H]1n1cnc2c(N)nc(Cl)nc21', 9),
  ('CSC[C@H]1O[C@@H](n2cnc3c(N)nc(C#N)nc32)[C@H](O)[C@@H]1O', 1),
  ('C[C@H]1O[C@@H](n2cnc3c(N)nc(NN)nc32)[C@H](O)[C@@H]1O', 1),
  ('C[C@H]1O[C@@H](n2cnc3c(N)nc(N=[N+]=[N-])nc32)[C@H](O)[C@@H]1O', 1),
  ('CSC[C@H]1O[C@@H](n2cnc3c(N)nc(Cl)nc32)[C@H](OC(C)=O)[C@@H]1OC(C)=O', 1),
  ('CC(=O)NC[C@H]1O[C@@H](n2cnc3c(N)nc(Cl)nc32)[C@H](O)[C@@H]1O', 1);
